Molecular target: T1, MipZ WT (Caulobacter crescentus, UniProt Q9A6C9 1-278)
T1 sequence: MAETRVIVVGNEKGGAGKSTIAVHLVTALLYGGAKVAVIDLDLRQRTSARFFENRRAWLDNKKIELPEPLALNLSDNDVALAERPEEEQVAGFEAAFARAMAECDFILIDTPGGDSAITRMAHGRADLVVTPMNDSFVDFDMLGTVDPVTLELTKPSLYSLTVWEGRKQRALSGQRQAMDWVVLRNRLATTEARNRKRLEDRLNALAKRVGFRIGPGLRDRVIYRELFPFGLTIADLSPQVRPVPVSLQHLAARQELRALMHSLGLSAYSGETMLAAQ
Test: MST; EMSA: 10 mM HEPES/NaOH pH 7.2, 150 mM NaCl, 10 mM MgCl2, 0.05% Tween 20, 0.46 mM ATPgS, room temp; BLI: 50 mM HEPES/NaOH pH 7.2, 50 mM NaCl, 5 mM MgCl2, 0.1 mM
Settings: protein: recombinant; tags: C-terminal His6 (pET21a); chain copies: 2; label: Cy3 (5') on strand 1; blunt
PROPERTY_MEASURED: Kd

In [3]: df
Out[3]:
                                     binder  value_measured
0  rand-Cy3/rand-rev 26 bp (dsDNA) DNA 1: GAGGCAGACTAGATCTTCTAGTTCGG DNA 2: CCGAACTAGAAGATCTAGTCTGCCTC         < 10 µM

The reported measurements were obtained from paper PMC7229837.
